Attribute: inhibition at 2 µM
measurement.target: Smoothened (SMO) (Mus musculus)
Construct: C3H10T1/2 cells (ATCC #CCL-226) were split and seeded; endogenous in cells; host or cells: C3H10T1/2 (ATCC #CCL-226)
Sequence (P56726 33-793): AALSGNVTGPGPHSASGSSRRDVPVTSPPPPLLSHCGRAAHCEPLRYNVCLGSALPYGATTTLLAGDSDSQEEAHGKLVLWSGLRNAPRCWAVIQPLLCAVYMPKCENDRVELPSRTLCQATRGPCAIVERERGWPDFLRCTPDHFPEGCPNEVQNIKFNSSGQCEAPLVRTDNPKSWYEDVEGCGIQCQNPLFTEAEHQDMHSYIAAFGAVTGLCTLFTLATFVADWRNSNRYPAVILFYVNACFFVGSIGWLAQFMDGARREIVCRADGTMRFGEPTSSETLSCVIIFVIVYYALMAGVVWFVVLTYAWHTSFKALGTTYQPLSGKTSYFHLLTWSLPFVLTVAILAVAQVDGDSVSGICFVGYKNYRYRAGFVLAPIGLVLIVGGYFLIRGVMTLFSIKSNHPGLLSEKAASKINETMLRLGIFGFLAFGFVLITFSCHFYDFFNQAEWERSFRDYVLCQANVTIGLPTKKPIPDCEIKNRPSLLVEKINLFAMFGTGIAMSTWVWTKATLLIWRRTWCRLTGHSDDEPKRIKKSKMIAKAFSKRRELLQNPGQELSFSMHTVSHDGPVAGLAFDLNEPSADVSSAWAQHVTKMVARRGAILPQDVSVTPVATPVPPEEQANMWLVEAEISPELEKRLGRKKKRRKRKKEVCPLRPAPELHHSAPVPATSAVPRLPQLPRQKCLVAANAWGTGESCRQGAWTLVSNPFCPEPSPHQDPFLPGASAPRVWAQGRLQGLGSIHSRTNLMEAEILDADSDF
assay: Smoothened (SMO)/Sonic Hedgehog (SHh) Transient Transcriptional Activation Assay (Gli-luciferase reporter in C3H10T1/2 cells)
Type: cell-based, murine
applied.conditions: C3H 10T1/2, 2 μM compound; transfected C3H10T1/2 cells, recombinant human SHh 250 ng/mL, 20 hours, luciferase readout; read-out: SMO CELL % INHIBITION @ 2 μM
Structures can show the parent of a compound that is named as a salt.
# number only, unit % dropped from output

Consider the following illustrative entries.
| molecule | unit | inhibition at 2 µM |
| --- | --- | --- |
| O=C(N[C@@H]1CCN2CCn3c(nc4ccccc43)[C@H]2C1)c1ccc2c(c1)OCCO2 [Example 12, hydrochloride] | % | 64.1 |
| COc1ccc2[nH]c([C@H]3C[C@H](NC(=O)c4ccc5c(c4F)OCCO5)CCN3C)nc2c1 [Example 143] | % | 83.5 |

Looking for the measured inhibition at 2 µM of CN1CC[C@@H](NC(=O)Nc2ccc(C(F)(F)F)cc2)C[C@@H]1c1nc2ccccc2[nH]1 [Example 18, hydrochloride] , can you help?
110

###

measurement.target: Smoothened (SMO) (Mus musculus)
Construct: C3H10T1/2 cells (ATCC #CCL-226) were split and seeded; endogenous in cells; host or cells: C3H10T1/2 (ATCC #CCL-226)
assay: Smoothened (SMO)/Sonic Hedgehog (SHh) Transient Transcriptional Activation Assay (Gli-luciferase reporter in C3H10T1/2 cells)
Format: cell-based, murine
applied.conditions: C3H 10T1/2, 2 μM compound; transfected C3H10T1/2 cells, recombinant human SHh 250 ng/mL, 20 hours, luciferase readout; read-out: SMO CELL % INHIBITION @ 2 μM
Where a name gives a salt, the structure may show the parent alone.
Attribute: inhibition at 2 µM
Answer shape: numeric part, then the unit.

Consider the following illustrative entries.
| compound | inhibition at 2 µM |
| --- | --- |
| CN1CC[C@@H](NC(=O)c2ccc3nonc3c2)C[C@@H]1c1nc2ccccc2[nH]1 [Example 119, trifluoroacetate] | 64.5% |
| CN1CC[C@@H](NC(=O)c2cc3ccccc3n2C)C[C@@H]1c1nc2ccccc2[nH]1 [Example 113, trifluoroacetate] | 76.1% |
| CN1CC[C@@H](NC(=O)Cc2cccc(F)c2)C[C@@H]1c1nc2ccccc2[nH]1 [Example 123, trifluoroacetate] | 52.2% |

Looking for the measured inhibition at 2 µM of Cc1ccc(NC(=O)N[C@@H]2CCN(C3CCC3)[C@@H](c3nc4cc(C)c(C)cc4[nH]3)C2)cn1 , can you help?
106%

###

measurement.target: Smoothened (SMO) (Mus musculus)
Construct: C3H10T1/2 cells (ATCC #CCL-226) were split and seeded; endogenous in cells; host or cells: C3H10T1/2 (ATCC #CCL-226)
assay: Smoothened (SMO)/Sonic Hedgehog (SHh) Transient Transcriptional Activation Assay (Gli-luciferase reporter in C3H10T1/2 cells)
Assay type: cell-based, murine
applied.conditions: C3H 10T1/2, 2 μM compound; transfected C3H10T1/2 cells, recombinant human SHh 250 ng/mL, 20 hours, luciferase readout; read-out: SMO CELL % INHIBITION @ 2 μM
Where a name gives a salt, the structure may show the parent alone.
test.readout: inhibition at 2 µM (%)
# number only, unit % dropped from output

Consider the following illustrative entries.
| compound | inhibition at 2 µM [%] |
| --- | --- |
| O=C(N[C@@H]1CCN[C@@H](c2nc3ccccc3[nH]2)C1)c1ccc2c(c1)OCCO2 [Example 99, trifluoroacetate] | 72 |
| COc1ccc(NC(=O)N[C@@H]2CCN(C)[C@@H](c3nc4cc(C)c(C)cc4[nH]3)C2)cn1 [Example 138, hydrochloride] | 108 |
| CN1CC[C@@H](NC(=O)N2CCOCC2)C[C@@H]1c1nc2ccccc2[nH]1 [Example 95, hydrochloride] | 78.7 |

Turning now to a further compound:
Looking for the measured inhibition at 2 µM of CN1CC[C@@H](NC(=O)Nc2ccc(C(F)(F)F)nc2)C[C@@H]1c1nc2cc(C#N)ccc2[nH]1 [Example 55, hydrochloride] , can you help?
105

Source listed as patent US8431597B2.
